Assay: Solubility (at pH 7.4)
Format: physicochemical
Conditions: buffer, read-out: S
measure-name: solubility (µg/mL)

compound="Cl.NCCCC[C@H](N)C(=O)NC1CCN(c2cc3c(cc2F)c(=O)c(C(=O)O)cn3C2CC2)C1.O (stereo not given in full)" measure_name=solubility test_value=110
compound=C[C@H](N)C(=O)N[C@@H]1CCN(c2c(F)c(N)c3c(=O)c(C(=O)O)cn(C4CC4)c3c2F)C1.Cl.O measure_name=solubility test_value=40
compound=C[C@H](N)C(=O)N[C@@H]1CCN(c2nc3c(cc2F)c(=O)c(C(=O)O)cn3C2CC2)C1.Cl.O measure_name=solubility test_value=70
compound="C[C@H](N)C(=O)NC1CCN(c2c(F)cc3c(=O)c(C(=O)O)cn(C4CC4)c3c2F)C1.Cl.O (stereo not given in full)" measure_name=solubility test_value=90
compound="Cl.NCC(=O)NC1CCN(c2cc3c(cc2F)c(=O)c(C(=O)O)cn3C2CC2)C1.O (stereo not given)" measure_name=solubility test_value=220
compound="Cl.N[C@@H](Cc1ccccc1)C(=O)NC1CCN(c2nc3c(cc2F)c(=O)c(C(=O)O)cn3C2CC2)C1.O (stereo not given in full)" measure_name=solubility test_value=60
compound="Cl.NCC(=O)NC1CCN(c2c(F)c(N)c3c(=O)c(C(=O)O)cn(C4CC4)c3c2F)C1.O (stereo not given)" measure_name=solubility test_value=70
compound="C[C@H](N)C(=O)NC1CCN(c2cc3c(cc2F)c(=O)c(C(=O)O)cn3C2CC2)C1.Cl.O (stereo not given in full)" measure_name=solubility test_value=270
compound=Cl.Nc1c(F)c(N2CC[C@@H](N)C2)c(F)c2c1c(=O)c(C(=O)O)cn2C1CC1.O measure_name=solubility test_value=40
compound=C[C@H](N)C(=O)N[C@@H]1CCN(c2c(F)cc3c(=O)c(C(=O)O)cn(C4CC4)c3c2F)C1.Cl.O measure_name=solubility test_value=70

----------
Experiment: Solubility (at pH 4)
Type: physicochemical
Details: buffer, read-out: S
Attribute: solubility
measure-name: solubility

molecule="C[C@@H](N)C(=O)NC1CCN(c2cc3c(cc2F)c(=O)c(C(=O)O)cn3C2CC2)C1.Cl.O (stereo partly drawn)" test_value="> 100 mg/mL"
molecule="Cl.NCC(=O)NC1CCN(c2nc3c(cc2F)c(=O)c(C(=O)O)cn3C2CC2)C1.O (stereo not drawn)" test_value="> 200 mg/mL"
molecule=C[C@H](N)C(=O)N[C@H]1CCN(c2nc3c(cc2F)c(=O)c(C(=O)O)cn3C2CC2)C1.Cl.O test_value="> 350 mg/mL"

----------
Experiment: Solubility (in 0.1 N HCl)
Type: physicochemical
Settings: read-out: S
measure-name: solubility

compound="CC(C)[C@H](N)C(=O)NC1CCN(c2nc3c(cc2F)c(=O)c(C(=O)O)cn3C2CC2)C1.Cl.O (stereo partly specified)" measure_name=solubility test_value="> 200 mg/mL"
compound="Cl.NCCCC[C@H](N)C(=O)NC1CCN(c2nc3c(cc2F)c(=O)c(C(=O)O)cn3C2CC2)C1.O (stereo partly specified)" measure_name=solubility test_value="> 200 mg/mL"
compound=C[C@H](N)C(=O)N[C@@H]1CCN(c2nc3c(cc2F)c(=O)c(C(=O)O)cn3C2CC2)C1.Cl.O measure_name=solubility test_value="> 200 mg/mL"
compound="C[C@@H](N)C(=O)NC1CCN(c2cc3c(cc2F)c(=O)c(C(=O)O)cn3C2CC2)C1.Cl.O (stereo partly specified)" measure_name=solubility test_value="> 100 mg/mL"
compound="Cl.NCC(=O)NC1CCN(c2cc3c(cc2F)c(=O)c(C(=O)O)cn3C2CC2)C1.O (stereo unspecified)" measure_name=solubility test_value="> 100 mg/mL"
compound=C[C@H](N)C(=O)N[C@H]1CCN(c2nc3c(cc2F)c(=O)c(C(=O)O)cn3C2CC2)C1.Cl.O measure_name=solubility test_value="> 350 mg/mL"

----------
Attribute: solubility
Test: Solubility (at pH 4)
Assay type: physicochemical
Conditions: buffer, read-out: S
measure-name: solubility

compound="Cl.NCCCC[C@H](N)C(=O)NC1CCN(c2cc3c(cc2F)c(=O)c(C(=O)O)cn3C2CC2)C1.O (some centres not stated)" test_value="> 100 mg/mL"
compound="Cl.NCCCC[C@H](N)C(=O)NC1CCN(c2nc3c(cc2F)c(=O)c(C(=O)O)cn3C2CC2)C1.O (some centres not stated)" test_value="> 600 mg/mL"
compound=C[C@H](N)C(=O)N[C@@H]1CCN(c2c(F)c(N)c3c(=O)c(C(=O)O)cn(C4CC4)c3c2F)C1.Cl.O test_value="71 mg/mL"
compound=C[C@H](N)C(=O)N[C@H]1CCN(c2c(F)c(N)c3c(=O)c(C(=O)O)cn(C4CC4)c3c2F)C1.Cl.O test_value="58 mg/mL"
compound="CC(C)[C@H](N)C(=O)NC1CCN(c2nc3c(cc2F)c(=O)c(C(=O)O)cn3C2CC2)C1.Cl.O (some centres not stated)" test_value="> 200 mg/mL"
compound="Cl.N[C@@H](Cc1ccccc1)C(=O)NC1CCN(c2nc3c(cc2F)c(=O)c(C(=O)O)cn3C2CC2)C1.O (some centres not stated)" test_value="> 100 mg/mL"
compound=C[C@H](N)C(=O)N[C@H]1CCN(c2c(F)cc3c(=O)c(C(=O)O)cn(C4CC4)c3c2F)C1.Cl.O test_value="19 mg/mL"
compound="C[C@@H](N)C(=O)NC1CCN(c2c(F)cc3c(=O)c(C(=O)O)cn(C4CC4)c3c2F)C1.Cl.O (some centres not stated)" test_value="19.4 mg/mL"
compound="Cl.NCC(=O)NC1CCN(c2cc3c(cc2F)c(=O)c(C(=O)O)cn3C2CC2)C1.O (configuration not stated)" test_value="> 100 mg/mL"
compound="C[C@H](N)C(=O)NC1CCN(c2nc3c(cc2F)c(=O)c(C(=O)O)cn3C2CC2)C1.Cl.O (some centres not stated)" test_value="> 350 mg/mL"
compound="Cl.N[C@@H](Cc1ccccc1)C(=O)NC1CCN(c2cc3c(cc2F)c(=O)c(C(=O)O)cn3C2CC2)C1.O (some centres not stated)" test_value="66 mg/mL"
compound=C[C@H](N)C(=O)N[C@@H]1CCN(c2nc3c(cc2F)c(=O)c(C(=O)O)cn3C2CC2)C1.Cl.O test_value="> 200 mg/mL"

The origin of these recorded values is ChEMBL document CHEMBL1126036.
